Task for the reader: assign each of the following compounds its reported NO release.
assay-name: NO release in the presence of 1:5 molar excess of L-cysteine, value expressed as % mol/mol of NO2-
Answer with a number only.

Q: // lookup NO release for CC(=O)Oc1ccccc1C(=O)OCCCO[N+](=O)[O-]
Ans: 0.18

Q: // lookup NO release for CC(=O)Oc1ccccc1C(=O)OCc1no[n+]([O-])c1C(N)=O
Ans: 3.8

Q: // lookup NO release for CC(=O)Oc1ccccc1C(=O)OCCCOc1no[n+]([O-])c1-c1ccccc1
Ans: 0.35

Q: // lookup NO release for CC(=O)Oc1ccccc1C(=O)OCCCOc1no[n+]([O-])c1S(=O)(=O)c1ccccc1
Ans: 37.1

Q: // lookup NO release for CC(=O)Oc1ccccc1C(=O)OCc1no[n+]([O-])c1C
Ans: 0

Q: // lookup NO release for CC(=O)Oc1ccccc1C(=O)OCc1no[n+]([O-])c1C#N
Ans: 32.3

----------
assay-name: Percent unaltered compound in human serum after 1 hr of incubation
Format: ADME
setup-conditions: read-out: Unaltered compound
Task for the reader: assign each of the following molecules its reported remaining at 1 h.
Answer format: number, then unit.

Q: // lookup remaining at 1 h for CC(=O)Oc1ccccc1C(=O)OCc1no[n+]([O-])c1C
Ans: 0%

Q: // lookup remaining at 1 h for CC(=O)Oc1ccccc1C(=O)OCCCOc1no[n+]([O-])c1S(=O)(=O)c1ccccc1
Ans: 9.3%

Q: // lookup remaining at 1 h for CC(=O)Oc1ccccc1C(=O)OCCCOc1no[n+]([O-])c1-c1ccccc1
Ans: 3.8%

Q: // lookup remaining at 1 h for CC(=O)Oc1ccccc1C(=O)OCCCOc1nonc1S(=O)(=O)c1ccccc1
Ans: 8.1%

Q: // lookup remaining at 1 h for CC(=O)Oc1ccccc1C(=O)OCCCO[N+](=O)[O-]
Ans: 0%

Q: // lookup remaining at 1 h for CCCOC(=O)c1ccccc1OC(C)=O
Ans: 0%

Q: // lookup remaining at 1 h for CC(=O)Oc1ccccc1C(=O)OCc1no[n+]([O-])c1C(N)=O
Ans: 0%

Q: // lookup remaining at 1 h for CC(=O)Oc1ccccc1C(=O)OCc1nonc1C(N)=O
Ans: 0%

Q: // lookup remaining at 1 h for CC(=O)Oc1ccccc1C(=O)OCc1nonc1C#N
Ans: 0%

Q: // lookup remaining at 1 h for CC(=O)Oc1ccccc1C(=O)OCCCOc1nonc1-c1ccccc1
Ans: 3.9%

Q: // lookup remaining at 1 h for CC(=O)Oc1ccccc1C(=O)OCc1nonc1C
Ans: 0%

Q: // lookup remaining at 1 h for CC(=O)Oc1ccccc1C(=O)OCc1no[n+]([O-])c1C#N
Ans: 0%

----------
Task for the reader: assign each of the following molecules its reported remaining at 1 min.
assay-name: Percent unaltered compound in human serum after 1 min of incubation
Assay type: ADME
setup-conditions: read-out: Unaltered compound
State the answer as a number, implicitly in %.

Q: // lookup remaining at 1 min for CC(=O)Oc1ccccc1C(=O)OCc1no[n+]([O-])c1C(N)=O
Ans: 0

Q: // lookup remaining at 1 min for CC(=O)Oc1ccccc1C(=O)OCc1nonc1C(N)=O
Ans: 0

Q: // lookup remaining at 1 min for CC(=O)Oc1ccccc1C(=O)OCCCOc1no[n+]([O-])c1S(=O)(=O)c1ccccc1
Ans: 43.7

Q: // lookup remaining at 1 min for CC(=O)Oc1ccccc1C(=O)OCCCOc1nonc1-c1ccccc1
Ans: 39.3

Q: // lookup remaining at 1 min for CC(=O)Oc1ccccc1C(=O)OCCCO[N+](=O)[O-]
Ans: 0

Q: // lookup remaining at 1 min for CC(=O)Oc1ccccc1C(=O)OCCCOc1no[n+]([O-])c1-c1ccccc1
Ans: 38.8

Q: // lookup remaining at 1 min for CC(=O)Oc1ccccc1C(=O)OCc1no[n+]([O-])c1C#N
Ans: 0

Q: // lookup remaining at 1 min for CC(=O)Oc1ccccc1C(=O)OCCCOc1nonc1S(=O)(=O)c1ccccc1
Ans: 47.6

Q: // lookup remaining at 1 min for CC(=O)Oc1ccccc1C(=O)OCc1nonc1C#N
Ans: 0

Q: // lookup remaining at 1 min for CC(=O)Oc1ccccc1C(=O)OCc1no[n+]([O-])c1C
Ans: 2.5

Q: // lookup remaining at 1 min for CC(=O)Oc1ccccc1C(=O)OCc1nonc1C
Ans: 0

Q: // lookup remaining at 1 min for CCCOC(=O)c1ccccc1OC(C)=O
Ans: 0
